test system: E34 (patient-derived glioblastoma stem cells of proneural subtype); assay: surviving fraction (nuclei count normalised to DMSO); higher = more cells surviving (less toxic); conditions: 333.3 nM; exposure time: 72 h;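 further: nuclei counted by high-content imaging of Hoechst-stained cells in laminin-coated 384-well plates, relative to 0.1% DMSO vehicle wells, with staurosporine as cell-death control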
surviving fraction by entry:
I'd appreciate a reply containing only the number, no unit.

Some molecules with recorded surviving fraction:
O=C1CC[C@@H](C(=O)N2CSC[C@H]2C(=O)O)N1: 0.996
CCC(=O)OCC(=O)[C@@]1(OC(=O)CC)[C@H](C)C[C@H]2[C@H]3[C@H]([C@@H](O)C[C@@]21C)[C@@]1(C)C=CC(=O)C=C1C[C@H]3Cl [Alclometasone dipropionate]: 0.991
C[C@H]1Oc2cc(cnc2N)-c2c(nn(C)c2C#N)CN(C)C(=O)c2ccc(F)cc21: 0.999

Please find the next molecule below.
What measured surviving fraction goes with COc1cc2c(cc1O)CC[C@@H]1[C@@H]2CC[C@]2(C)[C@@H](O)CC[C@@H]12 ?
1.02

// provenance: the supplement of paper PMC13207355
